# Test system: MS2 coat protein
# Assay Notes: apparent KD of MS2 coat protein; designed switch direction (-1 OFF switch, 1 ON switch): -1; higher = weaker reporter binding
# Measurement Context: input ligand: FMN 200 uM
# apparent KD of MS2 coat protein values compiled below

Here's what some known entries look like.
>  <Sequence Entry>
ACAUGAGGAUCACCCAUGUCCGGCUGGUCUGUUCCGGCUGUCGAGGAUAUAGUCCGGUGUUCGCGCUAGAAGGCGAGGGCUGGA [Aenatbe mod 48] (Eterna round: R96, puzzle: Exclusion NG 3)

>  <Value Reported>
88 nM

$$$$
>  <Sequence Entry>
AACCGCGGAGGAUAUACACGGUGAUACUGAACUCCGGCACGACAUGAGGAUCACCCAUGUAGAAGGCCGAAUAU [EX2 B.13] (Eterna round: R97, puzzle: Exclusion 2)

>  <Value Reported>
151 nM

$$$$
>  <Sequence Entry>
ACCAGUAUAUGGAGAUUUUACAUGAGGAUCACCCAUGUUGGGACAGCUUUUUGCUUGUCUUAUCCUACUUUGUGUGU [Design #3] (Eterna round: R97, puzzle: Sensor, turn-off variant 1)

>  <Value Reported>
32.2 nM

$$$$
>  <Sequence Entry>
ACUCGACAUGAGGAUCACCCAUGUGAGGAUAUGGCCUGUAUGGCGUGAGCUGGCUCAGUCAGAAGGCGCGUGGG [salish99_ex1_r4_047] (Eterna round: R97, puzzle: Exclusion 1)

>  <Value Reported>
151 nM

$$$$

Please find the next sequence below.
Need apparent KD of MS2 coat protein of GACCCAGAUGUAAGGAUAUCGAGCUGCGUCAGGUUCGAGAAGGUACAUGAGGAUCACCCAUGUGCAAGCACUCC [BmEX4 B.18] (Eterna round: R97, puzzle: Brourd's mod of Exclusion 4) , thanks.
32.8 nM
